# assay.target: ALG13 (UniProt Q9NP73)
# Sequence (Q9NP73 whole entry, the tested form may be a part): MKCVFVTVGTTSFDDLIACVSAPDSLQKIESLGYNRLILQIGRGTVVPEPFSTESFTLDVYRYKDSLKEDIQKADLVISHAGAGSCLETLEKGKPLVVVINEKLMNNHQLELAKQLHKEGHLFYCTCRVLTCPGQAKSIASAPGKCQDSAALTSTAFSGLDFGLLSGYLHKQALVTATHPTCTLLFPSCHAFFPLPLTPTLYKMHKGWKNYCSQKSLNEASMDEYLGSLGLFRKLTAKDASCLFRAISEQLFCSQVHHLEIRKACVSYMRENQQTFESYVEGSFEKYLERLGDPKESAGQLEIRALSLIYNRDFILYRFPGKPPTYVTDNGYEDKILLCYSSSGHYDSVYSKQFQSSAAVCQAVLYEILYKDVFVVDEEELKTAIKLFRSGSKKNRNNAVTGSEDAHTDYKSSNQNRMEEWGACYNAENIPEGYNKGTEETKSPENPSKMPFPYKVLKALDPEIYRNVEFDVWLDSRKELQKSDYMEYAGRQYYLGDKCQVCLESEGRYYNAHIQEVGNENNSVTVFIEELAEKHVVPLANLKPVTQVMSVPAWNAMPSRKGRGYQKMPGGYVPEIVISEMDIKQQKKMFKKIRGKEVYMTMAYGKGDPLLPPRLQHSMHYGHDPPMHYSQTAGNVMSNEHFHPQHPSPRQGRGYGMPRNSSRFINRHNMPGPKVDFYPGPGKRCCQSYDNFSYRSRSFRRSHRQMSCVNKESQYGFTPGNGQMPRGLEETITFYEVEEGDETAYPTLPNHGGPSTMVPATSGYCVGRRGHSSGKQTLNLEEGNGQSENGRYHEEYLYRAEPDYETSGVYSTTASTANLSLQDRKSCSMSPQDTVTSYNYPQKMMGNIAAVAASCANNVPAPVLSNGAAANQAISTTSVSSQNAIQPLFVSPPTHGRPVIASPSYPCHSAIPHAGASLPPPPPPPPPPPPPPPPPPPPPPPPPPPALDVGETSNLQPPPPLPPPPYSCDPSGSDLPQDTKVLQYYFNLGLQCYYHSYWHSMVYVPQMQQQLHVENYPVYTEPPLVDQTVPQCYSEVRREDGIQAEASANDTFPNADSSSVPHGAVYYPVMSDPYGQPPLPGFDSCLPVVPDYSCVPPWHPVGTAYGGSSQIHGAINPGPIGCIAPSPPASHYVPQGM
# test.name: log2 ratio of Biotin-Ahx-Ub-VS probe labelling (fragment/DMSO); higher = less target engagement (more negative = stronger competition), active = hit call of the paper (q ≤ 0.05, log2 ratio ≤ -1)
# particulars: compound concentration: 200 uM; treatment time: 3 h
Binning of log2 ratio of Biotin-Ahx-Ub-VS probe labelling into classes: bin 0: < -0.2; bin 1: ≥ -0.2 and < 0.1; bin 2: ≥ 0.1

molecule: O=C(CCl)Nc1ccc(N2CCCC2=O)cc1
category.label: bin 1

[ask] State the class of the molecule shown: CC(NC(=O)CCl)c1noc(Cc2ccccc2)n1 (centres undefined)
[reply] bin 2

[ask] State the class of the molecule shown: O=C(CCl)N1CCC(O)(Cc2ccc(F)cc2)C1 (centres undefined)
[reply] bin 0

[ask] State the class of the molecule shown: COCC[C@@H](NC(=O)CCl)c1ccccc1
[reply] bin 0

[ask] State the class of the molecule shown: Cc1ccc(N2CCC(NC(=O)CCl)C2=O)cc1 (centres undefined)
[reply] bin 0

[ask] State the class of the molecule shown: O=C(CCl)NCc1ccc(N2CCOCC2)c(F)c1
[reply] bin 0

[ask] State the class of the molecule shown: O=C(CCl)NC1CCC2(CC1)OCCO2
[reply] bin 1

---

# assay.target: BAP1 (UniProt Q92560)
# Sequence (Q92560 whole entry, the tested form may be a part): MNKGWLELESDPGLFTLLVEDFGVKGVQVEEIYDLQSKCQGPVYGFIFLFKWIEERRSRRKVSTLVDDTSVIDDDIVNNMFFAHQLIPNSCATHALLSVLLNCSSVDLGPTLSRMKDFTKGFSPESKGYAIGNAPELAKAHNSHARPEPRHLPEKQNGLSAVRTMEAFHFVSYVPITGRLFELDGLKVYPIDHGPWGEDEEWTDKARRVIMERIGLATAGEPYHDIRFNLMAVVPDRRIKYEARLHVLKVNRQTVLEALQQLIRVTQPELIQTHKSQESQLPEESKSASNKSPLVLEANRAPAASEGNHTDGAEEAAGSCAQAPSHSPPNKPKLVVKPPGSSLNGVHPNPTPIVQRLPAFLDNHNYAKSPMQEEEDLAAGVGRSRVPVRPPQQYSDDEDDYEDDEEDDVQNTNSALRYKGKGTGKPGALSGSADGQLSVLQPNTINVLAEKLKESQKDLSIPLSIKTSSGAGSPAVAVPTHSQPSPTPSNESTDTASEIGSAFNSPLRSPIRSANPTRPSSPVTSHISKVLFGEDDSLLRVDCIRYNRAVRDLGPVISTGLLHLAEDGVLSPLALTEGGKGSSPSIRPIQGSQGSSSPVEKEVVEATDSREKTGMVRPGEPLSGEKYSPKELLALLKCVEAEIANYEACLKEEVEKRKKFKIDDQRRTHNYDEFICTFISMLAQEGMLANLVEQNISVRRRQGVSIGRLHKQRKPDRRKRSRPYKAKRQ
# test.name: log2 ratio of Biotin-Ahx-Ub-VS probe labelling (fragment/DMSO); higher = less target engagement (more negative = stronger competition), active = hit call of the paper (q ≤ 0.05, log2 ratio ≤ -1)
# particulars: compound concentration: 200 uM; treatment time: 3 h
Answer with one of the outcomes given here: active, inactive

Worked examples follow.
molecule: Cc1cccnc1NC(=O)C1CCN(C(=O)CCl)CC1.Cl
category.label: inactive
--
molecule: Cl.O=C(CCl)NCCc1ncc(F)cc1F
category.label: active
--
molecule: O=C(CCl)Nc1ccc(F)cc1Cl
category.label: active
--
molecule: CN(Cc1nc2ccccc2[nH]1)C(=O)CCl.Cl
category.label: inactive
--
molecule: Cl.O=C(CCl)NC1(c2ncccn2)CCC1
category.label: inactive
--
molecule: Cl.O=C(CCl)N1CCN(Cc2ccccc2)CC1
category.label: inactive

[ask] What did this assay record as the result for Cl.O=C(CCl)N[C@H]1C[C@@H](n2cccn2)C1 ?
[reply] active

[ask] What did this assay record as the result for Cc1cc(C2CCCN2C(=O)CCl)nn1C.Cl (stereo not drawn) ?
[reply] inactive

---

log2 ratio of Biotin-Ahx-Ub-VS probe labelling reference
# assay.target: UCHL5 (UniProt Q9Y5K5)
# Sequence (Q9Y5K5 whole entry, the tested form may be a part): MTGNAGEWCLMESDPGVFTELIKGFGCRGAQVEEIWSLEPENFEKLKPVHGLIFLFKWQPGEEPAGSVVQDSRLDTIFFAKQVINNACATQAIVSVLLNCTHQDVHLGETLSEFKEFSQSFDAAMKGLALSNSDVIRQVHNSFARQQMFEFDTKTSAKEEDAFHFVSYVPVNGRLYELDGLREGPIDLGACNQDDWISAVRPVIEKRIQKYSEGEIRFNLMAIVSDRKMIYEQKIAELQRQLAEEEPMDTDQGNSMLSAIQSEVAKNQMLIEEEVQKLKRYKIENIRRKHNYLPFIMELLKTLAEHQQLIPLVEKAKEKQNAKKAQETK
# test.name: log2 ratio of Biotin-Ahx-Ub-VS probe labelling (fragment/DMSO); higher = less target engagement (more negative = stronger competition), active = hit call of the paper (q ≤ 0.05, log2 ratio ≤ -1)
# particulars: compound concentration: 200 uM; treatment time: 3 h
Please reply with the number alone, leaving off any unit.

Field: example entries. Status: answers known.
molecule: Cc1nc(CNC(=O)CCl)c2ccccn12.Cl
recorded.measurement: -0.224
//
molecule: O=C(CCl)N1CCCCCC1c1ncon1 (centres undefined)
recorded.measurement: -0.229
//
molecule: CC(C)n1nccc1NC(=O)CCl
recorded.measurement: -0.327

[ask] Give reported log2 ratio of Biotin-Ahx-Ub-VS probe labelling for O=C(CCl)NC1CCC2(CC1)OCCO2 (UCHL5 (UniProt Q9Y5K5))
[reply] -0.477

[ask] Give reported log2 ratio of Biotin-Ahx-Ub-VS probe labelling for Cc1ccc(-c2nnc(C)[nH]2)c(NC(=O)CCl)c1 (UCHL5 (UniProt Q9Y5K5))
[reply] -0.152

[ask] Give reported log2 ratio of Biotin-Ahx-Ub-VS probe labelling for CN(C)C(=O)c1ccc(CNC(=O)CCl)cc1 (UCHL5 (UniProt Q9Y5K5))
[reply] -0.118

[ask] Give reported log2 ratio of Biotin-Ahx-Ub-VS probe labelling for O=C(CCl)N[C@H]1CC[C@@H](CO)CC1 (UCHL5 (UniProt Q9Y5K5))
[reply] -0.9

---

# assay.target: BAP1 (UniProt Q92560)
# test.name: log2 ratio of Biotin-Ahx-Ub-VS probe labelling (fragment/DMSO); higher = less target engagement (more negative = stronger competition), active = hit call of the paper (q ≤ 0.05, log2 ratio ≤ -1)
# particulars: compound concentration: 200 uM; treatment time: 3 h
Binning of log2 ratio of Biotin-Ahx-Ub-VS probe labelling into classes: range A (below -2), range B (-2 to below -0.9), range C (-0.9 or more)

Worked examples follow.
compound: O=C(CCl)Nc1ccc(Cl)c(F)c1
category.label: range A
//
compound: CC(c1ccccc1)N(C)C(=O)CCl (centres undefined)
category.label: range C
//
compound: O=C(CN1CCN(C(=O)CCl)CC1)Nc1cccc(F)c1
category.label: range B
//
compound: Cc1cccc(C)c1NC(=O)CCl
category.label: range A
//
compound: Cc1ccccc1OCC(=O)N1CCN(C(=O)CCl)CC1
category.label: range C

[ask] State the class of the compound shown: CCC1c2ccsc2CCN1C(=O)CCl (centres undefined)
[reply] range C

[ask] State the class of the compound shown: Cl.O=C(CCl)NCCN1CCc2ccccc21
[reply] range B

[ask] State the class of the compound shown: COc1ccc(C2CCCN2C(=O)CCl)c(OC)c1 (centres undefined)
[reply] range A

[ask] State the class of the compound shown: O=C(CCl)NCCC1COCCO1 (centres undefined)
[reply] range B

[ask] State the class of the compound shown: O=C(CCl)NCc1ccc2c(c1)OCO2
[reply] range A

[ask] State the class of the compound shown: Cl.O=C(CCl)N1CCc2ncncc2C1
[reply] range C

[ask] State the class of the compound shown: O=C(CCl)NCC1(c2ccccc2)CC1
[reply] range B

---

# assay.target: USP4 (UniProt Q13107)
# Sequence (Q13107 whole entry, the tested form may be a part): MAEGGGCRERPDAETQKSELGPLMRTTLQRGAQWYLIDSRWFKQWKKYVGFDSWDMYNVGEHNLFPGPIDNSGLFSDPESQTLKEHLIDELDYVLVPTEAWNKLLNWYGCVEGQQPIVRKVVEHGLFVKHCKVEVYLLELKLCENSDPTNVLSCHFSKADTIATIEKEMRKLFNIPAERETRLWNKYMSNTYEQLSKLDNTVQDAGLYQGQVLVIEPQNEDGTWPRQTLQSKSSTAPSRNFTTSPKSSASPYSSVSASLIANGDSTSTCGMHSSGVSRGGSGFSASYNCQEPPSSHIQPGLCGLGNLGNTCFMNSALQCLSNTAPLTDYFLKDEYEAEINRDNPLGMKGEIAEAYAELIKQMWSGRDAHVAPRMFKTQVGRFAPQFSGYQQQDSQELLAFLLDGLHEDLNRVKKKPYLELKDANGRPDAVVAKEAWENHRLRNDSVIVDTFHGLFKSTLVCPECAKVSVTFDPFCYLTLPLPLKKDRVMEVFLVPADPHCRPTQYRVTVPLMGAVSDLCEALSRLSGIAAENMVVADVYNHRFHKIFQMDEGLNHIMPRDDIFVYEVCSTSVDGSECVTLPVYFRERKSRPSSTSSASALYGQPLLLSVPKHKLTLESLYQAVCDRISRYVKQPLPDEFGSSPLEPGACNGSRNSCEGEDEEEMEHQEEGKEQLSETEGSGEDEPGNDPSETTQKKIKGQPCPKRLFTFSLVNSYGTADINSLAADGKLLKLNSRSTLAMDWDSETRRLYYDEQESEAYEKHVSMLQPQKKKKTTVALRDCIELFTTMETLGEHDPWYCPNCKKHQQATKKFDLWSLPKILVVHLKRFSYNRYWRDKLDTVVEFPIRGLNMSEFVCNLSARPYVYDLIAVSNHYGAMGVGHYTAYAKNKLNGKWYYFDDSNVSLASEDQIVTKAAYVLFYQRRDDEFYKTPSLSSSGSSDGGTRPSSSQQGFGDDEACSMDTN
# test.name: log2 ratio of Biotin-Ahx-Ub-VS probe labelling (fragment/DMSO); higher = less target engagement (more negative = stronger competition), active = hit call of the paper (q ≤ 0.05, log2 ratio ≤ -1)
# particulars: compound concentration: 200 uM; treatment time: 3 h
Label t for high-side log2 ratio of Biotin-Ahx-Ub-VS probe labelling (at or above -0.02) and f for low-side log2 ratio of Biotin-Ahx-Ub-VS probe labelling (below it).

Worked examples follow.
compound: Cc1nc(-c2cccc(NC(=O)CCl)c2)cs1
category.label: f
--
compound: CS(=O)(=O)c1ccc(NC(=O)CCl)cc1
category.label: f
--
compound: COc1ccc(CN(C)C(=O)CCl)cc1
category.label: t
--
compound: Cc1cc(CC(C)NC(=O)CCl)n[nH]1 (configuration not stated)
category.label: f

[ask] Does Cc1ccc2nnc(CNC(=O)CCl)n2c1 have a reported log2 ratio of Biotin-Ahx-Ub-VS probe labelling of at least -0.02?
[reply] t

[ask] Does Cc1ccccc1C1(CNC(=O)CCl)CCOCC1 have a reported log2 ratio of Biotin-Ahx-Ub-VS probe labelling of at least -0.02?
[reply] f

[ask] Does O=C(CCl)NCc1ccc(N2CCOCC2)c(F)c1 have a reported log2 ratio of Biotin-Ahx-Ub-VS probe labelling of at least -0.02?
[reply] t

---

# assay.target: USP8 (UniProt P40818)
# Sequence (P40818 whole entry, the tested form may be a part): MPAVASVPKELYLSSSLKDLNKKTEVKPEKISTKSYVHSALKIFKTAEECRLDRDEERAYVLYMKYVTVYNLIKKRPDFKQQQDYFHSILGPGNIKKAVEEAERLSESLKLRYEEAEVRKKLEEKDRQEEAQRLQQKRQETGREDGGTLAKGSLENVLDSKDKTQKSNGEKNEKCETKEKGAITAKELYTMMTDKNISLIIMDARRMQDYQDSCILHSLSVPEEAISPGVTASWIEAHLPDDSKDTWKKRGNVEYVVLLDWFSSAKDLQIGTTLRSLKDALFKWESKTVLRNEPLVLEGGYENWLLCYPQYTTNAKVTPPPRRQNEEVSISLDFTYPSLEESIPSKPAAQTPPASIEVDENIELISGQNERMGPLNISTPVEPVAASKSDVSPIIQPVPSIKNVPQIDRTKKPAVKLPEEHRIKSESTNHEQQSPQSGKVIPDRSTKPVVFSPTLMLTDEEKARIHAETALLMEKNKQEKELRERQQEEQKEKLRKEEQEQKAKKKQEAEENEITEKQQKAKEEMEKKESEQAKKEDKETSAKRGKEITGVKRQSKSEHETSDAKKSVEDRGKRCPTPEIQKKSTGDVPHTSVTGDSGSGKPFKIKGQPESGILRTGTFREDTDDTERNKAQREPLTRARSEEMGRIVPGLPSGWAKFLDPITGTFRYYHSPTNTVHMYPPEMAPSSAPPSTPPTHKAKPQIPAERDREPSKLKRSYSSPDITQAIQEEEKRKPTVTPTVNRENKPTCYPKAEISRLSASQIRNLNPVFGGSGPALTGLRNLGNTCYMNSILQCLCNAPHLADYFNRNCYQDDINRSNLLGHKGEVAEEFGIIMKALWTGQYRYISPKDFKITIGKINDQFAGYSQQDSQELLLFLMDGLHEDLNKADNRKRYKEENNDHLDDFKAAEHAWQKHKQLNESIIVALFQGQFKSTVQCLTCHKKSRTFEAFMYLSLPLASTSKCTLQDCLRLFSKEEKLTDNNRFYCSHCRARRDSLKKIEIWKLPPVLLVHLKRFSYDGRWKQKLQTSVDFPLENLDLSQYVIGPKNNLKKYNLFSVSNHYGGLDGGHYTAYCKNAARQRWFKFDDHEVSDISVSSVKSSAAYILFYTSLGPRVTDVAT
# test.name: log2 ratio of Biotin-Ahx-Ub-VS probe labelling (fragment/DMSO); higher = less target engagement (more negative = stronger competition), active = hit call of the paper (q ≤ 0.05, log2 ratio ≤ -1)
# particulars: compound concentration: 200 uM; treatment time: 3 h
Binning of log2 ratio of Biotin-Ahx-Ub-VS probe labelling into classes: one (below -0.3), two (-0.3 to below -0.2), three (-0.2 or more)

Worked examples follow.
molecule: CCN(Cc1ccc(C#N)cc1F)C(=O)CCl
category.label: two

molecule: Cc1nc(-c2cccc(NC(=O)CCl)c2)cs1
category.label: two

molecule: Cc1cc(CC(C)NC(=O)CCl)n[nH]1 (centres undefined)
category.label: one

molecule: COc1ccc(-c2csc(NC(=O)CCl)n2)cc1
category.label: one

molecule: Cl.Cn1ncc2c1CCCC2NC(=O)CCl (centres undefined)
category.label: three

[ask] State the class of the molecule shown: N#Cc1ccc(CNC(=O)CCl)cc1
[reply] one

[ask] State the class of the molecule shown: Cc1ccc(CNC(=O)CCl)nc1C.Cl
[reply] two

[ask] State the class of the molecule shown: O=C(CCl)Nc1ccc2c(c1)OC(F)(F)O2
[reply] two

[ask] State the class of the molecule shown: CN(C(=O)CCl)c1nc2ccccc2s1
[reply] three

[ask] State the class of the molecule shown: Cl.Cn1ncc2c1CC(NC(=O)CCl)CC2 (centres undefined)
[reply] three

[ask] State the class of the molecule shown: Cc1ccc(CC(CO)CNC(=O)CCl)cc1 (centres undefined)
[reply] one

[ask] State the class of the molecule shown: Cc1nc(CN2CCN(C(=O)CCl)CC2)cs1
[reply] one

[ask] State the class of the molecule shown: Cc1ncc2c(n1)CCN(C(=O)CCl)C2
[reply] three

[ask] State the class of the molecule shown: C[C@@H](NC(=O)CCl)c1cccc(C#N)c1
[reply] three

These data points were gathered from the supplement of paper PMC11732987.
